Target Or System: Muscarinic acetylcholine receptor M2 (Homo sapiens)
Sequence (P08172 whole entry): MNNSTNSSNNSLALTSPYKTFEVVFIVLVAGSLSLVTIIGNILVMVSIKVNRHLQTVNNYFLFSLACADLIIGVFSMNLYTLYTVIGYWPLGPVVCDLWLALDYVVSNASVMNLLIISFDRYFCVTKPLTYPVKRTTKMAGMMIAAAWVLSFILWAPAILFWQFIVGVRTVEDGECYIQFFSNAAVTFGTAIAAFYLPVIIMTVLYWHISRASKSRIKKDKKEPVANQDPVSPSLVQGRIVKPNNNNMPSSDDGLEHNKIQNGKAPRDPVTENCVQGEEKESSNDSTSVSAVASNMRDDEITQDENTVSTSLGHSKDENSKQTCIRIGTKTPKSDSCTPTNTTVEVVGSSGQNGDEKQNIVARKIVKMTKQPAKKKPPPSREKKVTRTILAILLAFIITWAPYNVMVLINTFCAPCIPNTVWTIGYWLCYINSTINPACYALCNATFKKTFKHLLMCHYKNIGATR
Procedure Summary: Agonist activity at recombinant human muscarinic M2 receptor expressed in HEK293 cells co-expressing beta-arrestin assessed as increase in beta-arrestin recruitment after 24 hrs by Bright-Glo luminescence assay
Assay type: cell-based
Readout Name: EC50
Could you write the number and then its unit?

Smiles String	Readout Name	Recorded Result
COc1cccc(CC[N+](C)(C)C)c1	EC50	14 µM

We next turn to a different molecule, shown below.
Field EC50 (entry C[N+](C)(C)CCc1ccc2c(c1)OCC2 ) reads 17 µM

* * *

Target Or System: UniProt:P08172
Procedure Summary: Displacement of [3H]N-methyl-scopolamine bromide from human recombinant muscarinic M2 receptor expressed in HEK293T cell membranes after 1 hr by liquid scintillation counting method
Design: species or system HEK-293T
Classification by Ki | ranges: lower: < 2 µM; middle: ≥ 2 µM and < 10 µM; upper: ≥ 10 µM

Here's what some known entries look like.
Compound	Target Or System	Cat
CNCCc1cccc(OC)c1	UniProt:P08172	lower
C[N+](C)(C)CCc1cccc(O)c1	UniProt:P08172	upper
COc1cccc(C#CC[N+](C)(C)C)c1	UniProt:P08172	upper
COc1cccc2c1C[N+](C)(C)CC2	UniProt:P08172	middle
CN1CCCC(OCc2cccnc2)C1 (stereo not given)	UniProt:P08172	upper

Which bin should I file COc1cccc2c1CC[N+](C)(C)C2 under?
upper

Which bin should I file C[N+](C)(C)CCc1cccc(Cl)c1 under?
middle

Which bin should I file COc1cccc(C2CC2C[N+](C)(C)C)c1 (stereo not given) under?
upper

Which bin should I file COc1ccc(F)c(CC[N+](C)(C)C)c1 under?
lower

* * *

Measured pKi accompanies every entry in the list below.
Target Or System: Muscarinic acetylcholine receptor M1 (Homo sapiens, UniProt P11229)
Sequence (P11229 whole entry): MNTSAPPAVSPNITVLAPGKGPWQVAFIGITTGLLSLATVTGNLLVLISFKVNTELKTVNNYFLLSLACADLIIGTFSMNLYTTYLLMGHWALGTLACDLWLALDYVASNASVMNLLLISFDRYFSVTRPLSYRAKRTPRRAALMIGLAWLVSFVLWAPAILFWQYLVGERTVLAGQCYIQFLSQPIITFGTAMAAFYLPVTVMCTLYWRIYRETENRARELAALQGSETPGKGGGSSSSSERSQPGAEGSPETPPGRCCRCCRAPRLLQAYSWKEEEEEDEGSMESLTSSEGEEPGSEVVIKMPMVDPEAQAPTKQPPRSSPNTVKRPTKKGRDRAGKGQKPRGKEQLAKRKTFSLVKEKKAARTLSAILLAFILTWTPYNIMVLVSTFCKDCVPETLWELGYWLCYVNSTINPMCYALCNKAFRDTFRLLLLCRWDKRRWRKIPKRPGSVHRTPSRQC
Procedure Summary: Displacement of [3H]N-methyl-scopolamine bromide from human recombinant muscarinic M1 receptor expressed in HEK293T cell membranes after 1 hr by liquid scintillation counting method
Assay type: cell-based, HEK-293T
Kindly note that pKi refers to -log10 of the concentration in mol/L and answer with the value alone.

// known answers, use as guide
Compound	pKi
C[N+](C)(C)CCc1cccc(Cl)c1	5.35
COc1cccc(C2CC2C[N+](C)(C)C)c1 (centres undefined)	5.14
C[N+](C)(C)C1CCc2cccc(O)c2C1 (centres undefined)	5.54
COc1cccc2c1CC([N+](C)(C)C)CC2 (centres undefined)	6.00
COc1cccc(C(O)C[N+](C)(C)C)c1 (centres undefined)	4.89

We next turn to a different compound, shown below.
Field pKi (entry C[N+](C)(C)CCc1cccc(OC(F)(F)F)c1 ) reads 5.11
